- System: adenylate cyclase
- ASSAY: Adenylate cyclase activity of rabbit cardiac membranes by enzymatic fluorometric assay (ATP-ADP cycling), radioimmunoassay and Salomon's method
- Type: biochemical
- REPORTED_CONDITIONS: isoproterenol 10^-7 and 10^-6 M; NaF 10^-2 M; GppNHp 10^-4 M; carbachol 10^-6 M; adenosine 10^-3 M; three methods
PARAMETER: effect on cAMP production

1. Nc1ncnc2c1ncn2[C@@H]1O[C@H](CO)[C@@H](O)[C@H]1O [adenosine] = inhibited
2. [F-].[Na+] [NaF, Sodium Fluoride] = increased production
3. Nc1nc2c(ncn2[C@@H]2O[C@H](COP(=O)(O)OP(=O)(O)NP(=O)(O)O)[C@@H](O)[C@H]2O)c(=O)[nH]1 [GppNHp, guanylyl-5'-imidodiphosphate] = increased production
4. C[N+](C)(C)CCOC(N)=O [carbachol] = inhibited
